From: ChEMBL document CHEMBL1201862

System: SK-MEL-5
Experiment: NCI tumour cell line growth inhibition, 48 h
Calls of active or inactive are those of the source. No stated cut-off is given here; in the data, active = GI50 up to about 1.1 µM and inactive = higher.
Measured GI50 values are reported for all entries that follow.

Worked cases, answers included:
COC(=O)c1cc(=O)n(-c2ccc3nn(C)nc3c2)cc1C(=O)OC ... > 100 µM (inactive)
COc1cc(S(=O)(=O)Nc2ccc(-c3csc(N4C(=O)C(Cl)C4c4ccccc4)n3)cc2)ccc1Cl (stereo not given) ... 25.2 µM (inactive)
COc1ccc2c(-c3ccc(OCCN(C)C)cc3)c(Oc3ccccc3)c(=O)oc2c1 ... 2.37 µM (inactive)
O=C(NNC(=S)Nc1ccccc1)c1ccccc1Nc1ccccc1C(=O)NNC(=S)Nc1ccccc1 ... 26.3 µM (inactive)

### Prompt Given the entry `COc1cc(N(CCC#N)CCC#N)ccc1/C=N\NC(=O)c1ccc(C)cc1` , report its measured GI50.
### Response > 100 µM (inactive)

### Prompt Query (molecule): `COc1cc2c(cc1OC)-c1c3cc(O)ccc3nn[n+]1CC2` ; field requested: GI50
### Response > 100 µM (inactive)

### Prompt Looking for the measured GI50 of `O=C(c1c(F)c(F)c(F)c(F)c1F)N1CCN(C(=O)c2c(F)c(F)c(F)c(F)c2F)C1=S` , can you help?
### Response 6.9 µM (inactive)

### Prompt So what does the record say about GI50 for OCC1CCCCN1Cc1nc2cc(Cl)ccc2[nH]1 (stereo not given) ?
### Response > 100 µM (inactive)

### Prompt Can you share its GI50? I mean this molecule: CCOC(=O)CNc1nnnn1C1OC(CO)C(O)C1O (stereo not given)
### Response > 100 µM (inactive)

### Prompt Find the recorded GI50 belonging to CC1OC(OC2C(O)C(O)C(O)C(O)C2O)C(N)CC1NC(=N)C(=O)O (stereo not given) and report it.
### Response > 100 µM (inactive)

### Prompt I would be grateful if you could share the reported GI50 for `C=C([C@@]1(O)C[C@H]2[C@H](CCC2(OC)OC)[C@@H]2c3ccccc3O[C@@H]21)[Si](C)(C)C` .
### Response > 100 µM (inactive)

### Prompt Look up GI50: `COc1cccc2c3ccccc3c3nc[nH]c3c12`
### Response 16.7 µM (inactive)

### Prompt // lookup GI50 for `CCOc1cc(/C=N/c2nc3cc4sc(/N=C/c5ccc(O)c(OCC)c5)nc4cc3s2)ccc1O`
### Response 71.8 µM (inactive)

### Prompt Item under review: `c1ccc(C2=NCCN2)c(C2=NCCN2)c1` . Reported GI50?
### Response > 100 µM (inactive)

### Prompt # query: GI50 of entry `c1ccc([P+](c2ccccc2)(c2ccccc2)c2ccc([P+](c3ccccc3)(c3ccccc3)c3ccccc3)cc2)cc1`
### Response 41 µM (inactive)

### Prompt For CSCCC(NC(=O)C(Cc1c[nH]c2ccccc12)NC(=O)CCNC(=O)OC(C)(C)C)C(=O)NC(CC(=O)O)C(=O)NC(Cc1ccccc1)C(N)=O (stereo not given) , what is its reported GI50?
### Response > 50 µM (inactive)

### Prompt Any idea what its GI50 is? The molecule is `COC(=O)/C=C1/OC(c2ccc(OC)cc2)=C(Cl)C1=O`
### Response 14 µM (inactive)

### Prompt What value of GI50 has been recorded for this entry: O=S(=O)(CC(O)C(Cl)(Cl)Cl)NNc1ccccc1 (stereo not given)
### Response 74.1 µM (inactive)

### Prompt # get_value(readout='GI50', item= COC(=O)/C=C\C1C(C(=O)OC)C2(C(=O)OC)CCC1(C(=O)OC)N2 (stereo not given) )
### Response 19.3 µM (inactive)

### Prompt # query: GI50 of entry `N#C/C1=C(\N)CCSSSC1`
### Response 26.1 µM (inactive)
